Tested on: EKVX NSCLC
EXPERIMENT: NCI-60 one-dose screen, 48 h (100 = growth as untreated, 0 = no growth, -100 = all killed)
CONDITION SET: 10 µM unless noted
The panel holds about 83,000 compounds, 20% with a hit somewhere; the sample as a whole holds those more often.
The following molecules are shown together with reported growth values.
The answer is to be given in %; state only the numeric part.

O=c1cc(CP(=O)(O)O)c2cc(O)c(-c3ccccc3)cc2o1 | 89
N#Cc1ccccc1-c1ccc(CN2C(=O)S/C(=C\c3ccc(Br)cc3)C2=O)cc1 | 87.8
CC1(C)CC(=O)C2=C(C1)C(c1ccc(Cl)cc1)n1ncc(C#N)c1N2 (stereo not given) | 92.8
CCCc1cc(=O)oc2c(C(=O)CC(C)C)c(O)c(CC=C(C)C)c(O)c12 | 13.7
O=C(NCCCCCCNC(=O)OCc1ccc2c(Cl)cc(Cl)c(O)c2n1)OCc1ccc2c(Cl)cc(Cl)c(O)c2n1 | -69
CN(C)CCCn1c2c(c3cnccc3c1=O)C(=O)c1ccccc1-2 | 40.9
O=C(/C=C/C12c3ccccc3C(c3ccccc31)C1C(=O)NC(=O)C12)c1ccc(I)cc1 (stereo not given) | 66.1
COc1nc(/C=C\Nc2ccc3c(c2)OCCOCCOCCOCCO3)nc(OC)n1 | 91.8
Brc1ccc(Nc2nc(Nc3cnc4ccccc4c3)c3[nH]cnc3n2)cc1 | 40.3
Cc1ncc(C(=O)Nc2ccc(CN3CCN(C)CC3)c(C(F)(F)F)c2)cc1C#Cc1cnc(N)c2ccc(C#N)cc12 | 50.4

Request: Answer with the recorded growth of CCCCNC(=O)c1ccc2c(c1)nc(-c1ccccc1)n2C1CCCCC1 only.
Response: 88.4

Request: Answer with the recorded growth of CC(=O)c1c(Nc2cccc(F)c2)[nH]c2c(Cl)cc(Cl)c(Cl)c2c1=O only.
Response: 10.8

Request: Answer with the recorded growth of C=CN(C(=O)N1CCN(c2cc3c(cc2F)c(=O)c(C(=O)O)cn3C2CC2)CC1)c1nc(-c2ccc(Cl)cc2)cs1 only.
Response: 81.8

Request: Answer with the recorded growth of Clc1ccc(-c2nc(C(Cl)Cl)nc3cc(-c4ccccc4)nn23)cc1 only.
Response: -12.8

====

System: NCI-H226 lung
EXPERIMENT: NCI-60 one-dose screen, 48 h (100 = growth as untreated, 0 = no growth, -100 = all killed)
CONDITION SET: 10 µM unless noted
About 83,000 compounds went through this panel and 20% of them were active in at least one assay; those are over-represented in the sample as a whole.
Binarize growth at 80%; below is TRUE, at or above is FALSE.

Below are worked cases with known answers.
COCC(=O)Oc1cc(-c2ccc(C)cc2C)c(OC(=O)COC)c(-c2ccc(C)cc2C)c1 | TRUE
COc1ccccc1S(=O)(=O)Nc1ccc2c3c(cc(CCC(=O)NCCCCNc4cccc5c4C(=O)N(C4CCC(=O)NC4=O)C5=O)cc13)C(=O)N2C (stereo not drawn) | TRUE
COC(=O)/C=C1/SC(=Nc2ccc(F)cc2)N(CCc2c[nH]c3ccc(O)cc23)C1=O | TRUE
COC12C=C/C(=C(/C(=O)OCc3cncnc3)C(=O)CCCCCCCCC3(OC)C=C/C(=C(/C(=O)OCc4cncnc4)C(=O)CCCCCCCC1)O3)O2 | TRUE
CCN(CC)CCCC(Cc1ccccc1)Nc1c2ccc(Cl)cc2nc2ccc(OC)cc12 (stereo not drawn) | FALSE

Request: Below 80% on growth? Entry C=CCn1cc(-c2nc3ccccc3s2)c2cc(-c3ccc4c5c(cccc35)C(=O)N(CCO)C4=O)ccc21
Response: FALSE

Request: Below 80% on growth? Entry CSc1nc2ccc(C)cc2cc1/C=C1/C=C(c2ccccc2)NC1=O
Response: TRUE

Request: Below 80% on growth? Entry O=C(NCc1ccc(Cn2c(=O)sn(-c3ccccc3)c2=O)cc1)OCc1ccc2cccc(O)c2n1
Response: TRUE

====

The following molecules are shown together with reported growth values.
System: NCI-H460 lung
EXPERIMENT: NCI-60 one-dose screen, 48 h (100 = growth as untreated, 0 = no growth, -100 = all killed)
CONDITION SET: 10 µM unless noted
The panel holds about 83,000 compounds, 20% with a hit somewhere; the sample as a whole holds those more often.
The answer is to be given in %; state only the numeric part.

Would you please look over these solved cases?
C=CC(=O)Nc1cccc(Oc2nccc(Nc3nnc(-c4ccc(Br)cc4)s3)n2)c1 | 101
CCOC(=O)NCCCC(=O)NCCc1ccccc1 | 110
O=S(Nc1ccccc1)c1ccc(Cl)cc1 (stereo unspecified) | 95.1
COCCn1cc(-c2csc(-c3c[nH]c4ccccc34)n2)c2cccnc21 | 18.8
CCCC(O)Cn1ncc(C(=O)OCC)c1NC(=O)NCc1cccc(C(F)(F)F)c1 (stereo unspecified) | 103

Request: Check NCI-H460 lung data and give growth for COc1ccc(-c2cc(-c3cc(OC)ccc3OC)nc(SCC(C)=O)c2C#N)cc1 .
Response: 78.8

Request: Check NCI-H460 lung data and give growth for Nc1cc(Br)cc2c1[nH]c(=O)c1ccccc12 .
Response: 93.4

Request: Check NCI-H460 lung data and give growth for Cc1cc(O)c(=O)cc2c1C[C@H]1CC(C)(C)/C=C/C[C@]3(C)Oc4cc(=O)c(O)cc(C)c4C[C@H]3C[C@H](O)[C@@]1(C)O2 .
Response: -6.53

Request: Check NCI-H460 lung data and give growth for Nc1[nH]nc2nc(-c3ccccc3)n3c4ccccc4nc3c12 .
Response: 93

Request: Check NCI-H460 lung data and give growth for Cc1ccc(O)c(NC(=O)c2cccc(Nc3ccnc(C(F)(F)F)c3)c2)c1 .
Response: 55.4

====

System: LOX IMVI melanoma
EXPERIMENT: NCI-60 one-dose screen, 48 h (100 = growth as untreated, 0 = no growth, -100 = all killed)
CONDITION SET: 10 µM unless noted
This is part of a sample that, as a whole, favours compounds with a hit. Of some 83,000 tested, about 20% had one in any assay.
QUANTITY NAME: growth (%)
The answer is to be given in %; state only the numeric part.

Would you please look over these solved cases?
C#CCOc1ccc2nc(CCl)c(Cl)c(Nc3cccc(C(F)(F)F)c3)c2c1 | -1.15
C=C1C(=O)O[C@H]2[C@H]1CC/C(COC(=O)NCc1ccc(Cn3c(=O)sn(-c4ccc(I)cc4)c3=O)cc1)=C\CC[C@@]1(C)O[C@@H]21 | 69.4
Nc1nc(N(Cc2ccccc2)c2ccccc2)c2cn[nH]c2n1 | 53
COC(=O)c1ccc2cc(OC)c(OC)cc2c1 | 109

Request: Answer with the recorded growth of COc1ccccc1/C=C/C(=O)Nc1ccc(F)cc1 only.
Response: 100

====

System: BT-549 breast
EXPERIMENT: NCI-60 one-dose screen, 48 h
CONDITION SET: 10 µM unless noted
This is part of a sample that, as a whole, favours compounds with a hit. Of some 83,000 tested, about 20% had one in any assay. Active and inactive are the calls of the source. How the source made its calls: active means growth percent below 10; inactive means the rest.
Outcomes you can answer with include only these: active, inactive

Below are worked cases with known answers.
Cc1ccc(C)c2c1sc1nc(N3CCOCC3)c(C#N)c(=O)n12 | inactive
CCn1cc(C(=O)O)c(=O)c2cc(F)c(N3CCN(CC(=O)Nc4ccccc4)C(C)C3)c(F)c21 (stereo unspecified) | inactive
CS(=O)(=O)Nc1cc(-c2ccc3ncnc(Nc4ccc(F)c(Cl)c4)c3c2)ccc1Cl | inactive
O=C1CCCCN1c1ccc(C2=NCCCN2)cc1 | inactive
N#Cc1c(-c2ccc(Cl)cc2)nc(NN=Cc2ccc[nH]2)nc1N1CCOCC1 | inactive
C#Cc1cccc(NC(=O)C2CCCCN2C(=O)CCl)c1 (stereo unspecified) | active
Nc1c(Br)cc2c(c1Br)Cc1cc([N+](=O)[O-])ccc1-2 | inactive
C=CCn1cc(-c2nc3ccccc3s2)c2cc(-c3ccc4c5c(cccc35)C(=O)N(CCO)C4=O)ccc21 | inactive

Request: How did this test come out for ClC(Cl)c1nc(-c2ccccc2)n2nc(-c3ccccc3)cc2n1 ?
Response: inactive

Request: How did this test come out for Cc1nn(-c2ccc([N+](=O)[O-])cc2)c2ncnc(N/N=C/c3ccccc3O)c12 ?
Response: inactive

====

System: SK-MEL-5 melanoma
EXPERIMENT: NCI-60 one-dose screen, 48 h (100 = growth as untreated, 0 = no growth, -100 = all killed)
CONDITION SET: 10 µM unless noted
Experimental: Growth inhibition of the SK-MEL-5 human tumor cell line is measured as a screen for anti-cancer activity. Cells are grown in 96 well plates and exposed to the test compound for 48 hours. Compounds are tested at a single concentration, which is 10^-5 M for most compounds. The reported endpoint is percent growth (GI% or GIPRCNT), where numbers from 0 - 100% represent growth inhibition, and numbers from -100% - 0 represent cell death. For example, a value of 40 represents 60% growth inhibition. […]
This is part of a sample that, as a whole, favours compounds with a hit. Of some 83,000 tested, about 20% had one in any assay.
QUANTITY NAME: growth (%)
The answer is to be given in %; state only the numeric part.

Would you please look over these solved cases?
Cc1nc2ccccc2c(/C=C/c2ccc(F)cc2)c1C(=O)/C=C/c1ccccc1 | 27.4
O=C1c2cccnc2C(=O)c2c1c(C(=O)OCCc1ccccn1)c1ccccn21 | -94.2
C/C(=C(\c1ccc(OCCN2CCCCCC2)cc1)c1ccc(OC(=O)c2ccccc2)cc1)c1ccc(Cl)cc1 | 55.6
CC(=O)O[C@H]1CC[C@]2(C)[C@H]3CC=C4[C@@H]5CC(C)(C)CC[C@]5(C(=O)N5CCN(CCC#N)CC5)CC[C@@]4(C)[C@]3(C)CC[C@H]2C1(C)C | 7.89
C=C1C(=O)O[C@H]2[C@H]1CC/C(COC(=O)/C=C\C(=O)NCc1ccc(Cn3c(=O)sn(CCCCl)c3=O)cc1)=C\CC[C@@]1(C)O[C@@H]21 | 102
C[C@H](c1nc2ccc(C#N)cc2[nH]1)[C@H]1CC[C@H]2[C@@H]3CCC4=CC(=O)CC[C@]4(C)[C@H]3CC[C@]12C | 50.4

Request: Answer with the recorded growth of C=C(C)[C@@H]1CC[C@]2(C)[C@H](C=CC3=C4C[C@@](C)(CO)CC[C@]4(C)CC[C@]32C)[C@@]1(C)CCCN only.
Response: 17.5
